Measured values drawn from ChEMBL document CHEMBL3877303 for this set.

// reported GI50 at 72 h for each item listed
assay: Growth inhibition of mouse BAF3 cells measured after 72 hrs by CellTiter-Glo or CCK8 assay; format: cell-based
A number alone suffices; assume nM.

- chemical_structure: "Cc1ccc(NC(=O)c2ccc(CN3CCN(C)CC3)c(C(F)(F)F)c2)cc1OC1CCN(C(=O)c2cccnc2C)CC1"
  data_value: 540

Item: Cc1ccc(NC(=O)c2ccc(CN3CCN(C)CC3)c(C(F)(F)F)c2)cc1OCC1CN(C(=O)c2cccnc2)C1 | GI50 at 72 h: 1070

Item: Cc1ccc(NC(=O)c2ccc(CN3CCN(C)CC3)c(C(F)(F)F)c2)cc1OC1CCN(S(=O)(=O)c2ccccc2)CC1 | GI50 at 72 h: 5100

Item: Cc1ccc(NC(=O)c2ccc(CN3CCN(C)CC3)c(C(F)(F)F)c2)cc1OC1CCN(C(=O)c2cnc3ccccc3c2)CC1 | GI50 at 72 h: 1300

Item: Cc1ccc(NC(=O)c2ccc(CN3CCN(C)CC3)c(C(F)(F)F)c2)cc1OC1CCN(C(=O)c2cnccc2C)CC1 | GI50 at 72 h: 2680

Item: Cc1cncc(C(=O)N2CCC(Oc3cc(NC(=O)c4ccc(CN5CCN(C)CC5)c(C(F)(F)F)c4)ccc3C)CC2)c1 | GI50 at 72 h: 800

Item: Cc1ccc(NC(=O)c2ccc(CN3CCN(C)CC3)c(C(F)(F)F)c2)cc1OC1CCN(C(=O)c2cncc(Cl)c2)CC1 | GI50 at 72 h: 2870

Item: COc1cc2ncnc(N3CCC(Oc4cc(NC(=O)c5ccc(CN6CCN(C)CC6)c(C(F)(F)F)c5)ccc4C)CC3)c2cc1OC | GI50 at 72 h: 1200

Item: Cc1ccc(NC(=O)c2ccc(CN3CCN(C)CC3)c(C(F)(F)F)c2)cc1OC1CCN(c2ncccn2)CC1 | GI50 at 72 h: 8100

====

target: BCR/ABL p210 fusion protein (Homo sapiens); experiment: Inhibition of human BCR/ABL p210 fusion protein expressed in BAF3 cells assessed as growth inhibition measured after 72 hrs by CellTiter-Glo or CCK8 assay; type: cell-based
Sequence (A1Z199 1-97): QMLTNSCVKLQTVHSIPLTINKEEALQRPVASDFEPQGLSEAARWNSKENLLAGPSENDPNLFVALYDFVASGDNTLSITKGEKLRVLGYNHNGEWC
assay_metric: GI50 (µM)
A number alone suffices; assume µM.

Item: Cc1cncc(C(=O)N2CCC(Oc3cc(NC(=O)c4ccc(CN5CCN(C)CC5)c(C(F)(F)F)c4)ccc3C)CC2)c1 | GI50: 0.079

Item: COc1ccc(NC(=O)c2ccc(CN3CCN(C)CC3)c(C(F)(F)F)c2)cc1OC1CCN(C(=O)c2cccnc2)CC1 | GI50: 8.41

Item: Cc1ccc(NC(=O)c2ccc(CN3CCN(C)CC3)c(C(F)(F)F)c2)cc1OC1CCN(C(=O)Cc2cccnc2)CC1 | GI50: 5.52

Item: Cc1ccc(NC(=O)c2ccc(CN3CCN(C)CC3)c(C(F)(F)F)c2)cc1OCCNC(=O)c1cccnc1 | GI50: 1.55

Item: Cc1ccc(NC(=O)c2ccc(CN3CCN(C)CC3)c(C(F)(F)F)c2)cc1OCC1CCN(C(=O)c2cccnc2)C1 (stereo unspecified) | GI50: 4.94

Item: Cc1ccc(NC(=O)c2ccc(CN3CCN(C)CC3)c(C(F)(F)F)c2)cc1OC1CCN(C(=O)c2ccsc2)CC1 | GI50: 0.135
